Recorded values, source patent US20260206755A1.

# Test system: Anopheles stephensi
# ASSAY_NAME: Anopheles stephensi treated well plate contact test: knockdown and mortality
# Format: in vivo
# APPLIED_CONDITIONS: test compound 2 ppm plus 2 ppm TFNA-AM, after 48 hours
# Description: Examples Anopheles stephensi (Indian Malaria Mosquito) The individual wells of twelve (12) well tissue culture plates were treated with 200 μl of an ethanol solution containing a test compound of Table 1 or Table 2 at a defined concentration and repeated with also 200 μl of an ethanol solution containing in addition 2 ppm TFNA-AM. […]
Quick rule for you: mortality % 48, with TFNA-AM at 80% or higher means class 1, lower means class 0.

CN/C(=N/CC1CCOC1)N[N+](=O)[O-] (stereo not drawn)
class 0
CC(C)N1C(=O)N(c2ccccc2)CS/C1=N\C(C)(C)C
class 0
Cc1cc(C(F)(C(F)(F)F)C(F)(F)F)ccc1NC(=O)c1cccc(I)c1C(=O)NC(C)(C)CS(C)(=O)=O [Flubendiamide]
class 0

Ask: Kindly determine if mortality % 48, with TFNA-AM recorded for CN1COCN(Cc2cnc(Cl)s2)/C1=N\[N+](=O)[O-] is above or exactly 80%.
Result: class 1

Ask: Item: Nc1nc(N)nc(NC2CC2)n1
Result: class 0

====

Measured mortality % 24, with TFNA-AM values are reported for all entries that follow.
# System: Anopheles stephensi
# ASSAY_NAME: Anopheles stephensi treated well plate contact test: knockdown and mortality
# Assay type: in vivo
# APPLIED_CONDITIONS: test compound 20 ppm plus 2 ppm TFNA-AM, after 24 hours
Give the value in % but do not write % after it.

CCC(Nc1ncnc(C)c1Cl)c1ccc(OC(F)F)cc1 (stereo not drawn) [Diflumetorim]
100
CCc1nn(C)c(C(=O)NCc2ccc(C(C)(C)C)cc2)c1Cl [Tebufenpyrad]
80
CNC(=O)Oc1cccc2c1OC(C)(C)O2 [Bendiocarb]
100
CC(C)=C[C@@H]1[C@@H](C(=O)O[C@H](C#N)c2cccc(Oc3ccccc3)c2)C1(C)C (relative stereo) [d-d, trans cyphenothrin]
100
O=[N+]([O-])NC1=NCCN1Cc1ccc(Cl)nc1 [Imidacloprid]
100

# context switch: different molecule, same mortality % 24, with TFNA-AM
Ask: Given the entry C/C=C(\C)C(=O)O[C@H]1C[C@@H](OC(C)=O)[C@@]2(C(=O)OC)CO[C@H]3[C@@H](O)[C@@](C)([C@]45O[C@@]4(C)[C@H]4C[C@@H]5O[C@@H]5OC=C[C@@]54O)[C@H]4[C@]1(CO[C@]4(O)C(=O)OC)[C@@H]32 [Azadirachtin] , report its measured mortality % 24, with TFNA-AM.
Result: 60

====

# Test system: Anopheles stephensi
# ASSAY_NAME: Anopheles stephensi treated well plate contact test: knockdown and mortality
# Assay type: in vivo
# APPLIED_CONDITIONS: Anopheles stephensi; test compound 2 ppm, without TFNA-AM, knockdown after 1 hour; read-out: Knock Down, without TFNA-AM
Reported pest or weed control at 2 ppm values follow for various compounds
State just the number; it will be interpreted in %.

Guide cases for pest or weed control at 2 ppm, answers given:
Cc1cc(C(F)(C(F)(F)F)C(F)(F)F)ccc1NC(=O)c1cccc(I)c1C(=O)NC(C)(C)CS(C)(=O)=O [Flubendiamide]
0
CN/C(=N/CC1CCOC1)N[N+](=O)[O-] (stereo not drawn) [Dinotefuran]
0

Pending compound:
Ask: Requested read-out: pest or weed control at 2 ppm. Entry: CC(C)c1cc(Oc2ccccc2)cc(C(C)C)c1NC(=S)NC(C)(C)C [Diafenthiuron]
Result: 100

====

In this section, each of the compounds is paired with its reported mortality % 48, with TFNA-AM.
# Tested on: Anopheles stephensi
# ASSAY_NAME: Anopheles stephensi treated well plate contact test: knockdown and mortality
# Format: in vivo
# APPLIED_CONDITIONS: test compound 2 ppm plus 2 ppm TFNA-AM, after 48 hours
# value in %; strip the unit string

Ask: // lookup mortality % 48, with TFNA-AM for CO/C=C(/C(=O)OC)c1ccccc1COc1cc(C(F)(F)F)nc(OC(C)C)n1 [Fluacrypyrim]
Result: 100

Ask: Next entry: CO/C=C(/C(=O)OC)c1ccccc1COc1cccc(C(F)(F)F)n1 [Picoxystrobin]
Result: 80

====

# System: Anopheles stephensi
# ASSAY_NAME: Anopheles stephensi treated well plate contact test: knockdown and mortality
# Format: in vivo
# APPLIED_CONDITIONS: test compound 20 ppm plus 2 ppm TFNA-AM, after 48 hours
# Protocol: Examples Anopheles stephensi (Indian Malaria Mosquito) The individual wells of twelve (12) well tissue culture plates were treated with 200 μl of an ethanol solution containing a test compound of Table 1 or Table 2 at a defined concentration and repeated with also 200 μl of an ethanol solution containing in addition 2 ppm TFNA-AM. […]
MEASURED_ENDPOINT: mortality % 48, with TFNA-AM (%)
Unit % implied. Number only.

CCOc1ccc(C(C)(C)COCc2cccc(Oc3ccccc3)c2)cc1
100
CC1(C)C(C=C(Cl)Cl)C1C(=O)OC(C#N)c1cccc(Oc2ccccc2)c1 (centres unmarked)
100
CN1COCN(Cc2cnc(Cl)s2)/C1=N\[N+](=O)[O-]
100
OC(c1ccc(Cl)cc1)(c1ccc(Cl)cc1)C(Cl)(Cl)Cl
100
CCOC(=O)CC(SP(=S)(OC)OC)C(=O)OCC (centres unmarked)
100
CO/C=C(/C(=O)OC)c1ccccc1COc1cccc(C(F)(F)F)n1
100
CC(C)N1C(=O)N(c2ccccc2)CS/C1=N\C(C)(C)C
60
CCC(Nc1ncnc(C)c1Cl)c1ccc(OC(F)F)cc1 (centres unmarked)
100

Ask: Data request, read-out mortality % 48, with TFNA-AM, for COP(=S)(OC)Oc1ccc([N+](=O)[O-])c(C)c1
Result: 100

Ask: Next: CO/C=C(/C(=O)OC)c1ccccc1Oc1nc(C(C)(C)C)ns1
Result: 100

Ask: For O=c1c(-c2cccc(C(F)(F)F)c2)c([O-])[n+](Cc2cncnc2)c2ccccn12 then?
Result: 100

Ask: What do we get for Nc1nc(N)nc(NC2CC2)n1 ?
Result: 40

Ask: Also CCOc1cc(C(C)(C)C)ccc1C1COC(c2c(F)cccc2F)=N1 (centres unmarked) , if possible.
Result: 60

Ask: What about this compound? N#Cc1ccc(CC(=NNC(=O)Nc2ccc(OC(F)(F)F)cc2)c2cccc(C(F)(F)F)c2)cc1 (mixture of isomers)
Result: 100

====

# Test system: Anopheles stephensi
# ASSAY_NAME: Anopheles stephensi treated well plate contact test: knockdown and mortality
# Format: in vivo
# APPLIED_CONDITIONS: test compound 0.2 ppm plus 2 ppm TFNA-AM, after 48 hours
MEASURED_ENDPOINT: mortality % 48, with TFNA-AM (%)
Your answer is read as %, so omit the unit and give the number.

Ask: # get_value(readout='mortality % 48, with TFNA-AM', item= CO/C=C(/C(=O)OC)c1ccccc1COc1cc(C(F)(F)F)nc(OC(C)C)n1 [Fluacrypyrim] )
Result: 40

Ask: Proceed to CC(COc1ccc(Oc2ccccc2)cc1)Oc1ccccn1 (stereo not shown) [Pyriproxyfen]
Result: 60

Ask: Then what about the compound CON=C(C(=O)OC)c1ccccc1CON=C(C)c1cccc(C(F)(F)F)c1 [Trifloxystrobin] ?
Result: 0

Ask: Repeat with CO/C=C(/C(=O)OC)c1ccccc1COc1cccc(C(F)(F)F)n1 [Picoxystrobin]
Result: 20

====

Each entry below carries its recorded mortality % 48, with TFNA-AM.
# Tested on: Anopheles stephensi
# ASSAY_NAME: Anopheles stephensi treated well plate contact test: knockdown and mortality
# Type: in vivo
# APPLIED_CONDITIONS: test compound 0.2 ppm plus 2 ppm TFNA-AM, after 48 hours
Could you give me the number in %? Just the number is fine.

Please review the following examples before continuing.
CNC(=O)Oc1cccc2c1OC(C)(C)O2
100
Cc1c(COC(=O)[C@@H]2[C@H](/C=C(\Cl)C(F)(F)F)C2(C)C)cccc1-c1ccccc1 (racemic)
100
C/C=C(\C)C(=O)O[C@H]1C[C@@H](OC(C)=O)[C@@]2(C(=O)OC)CO[C@H]3[C@@H](O)[C@@](C)([C@]45O[C@@]4(C)[C@H]4C[C@@H]5O[C@@H]5OC=C[C@@]54O)[C@H]4[C@]1(CO[C@]4(O)C(=O)OC)[C@@H]32
20
CCOc1cc(C(C)(C)C)ccc1C1COC(c2c(F)cccc2F)=N1 (stereo not shown)
40
O=[N+]([O-])NC1=NCCN1Cc1ccc(Cl)nc1
0
CC(C)c1cc(Oc2ccccc2)cc(C(C)C)c1NC(=S)NC(C)(C)C
0

Okay, now this compound:
Ask: Please state recorded mortality % 48, with TFNA-AM (tested on Anopheles stephensi) of OC(c1ccc(Cl)cc1)(c1ccc(Cl)cc1)C(Cl)(Cl)Cl
Result: 0

====

Recorded mortality % 24, with TFNA-AM for the following compounds
# Tested on: Anopheles stephensi
# ASSAY_NAME: Anopheles stephensi treated well plate contact test: knockdown and mortality
# Format: in vivo
# APPLIED_CONDITIONS: test compound 0.2 ppm plus 2 ppm TFNA-AM, after 24 hours
Report the figure in % without appending any unit label.

Ask: Which mortality % 24, with TFNA-AM reading was recorded for the compound COP(=S)(OC)Oc1ccc([N+](=O)[O-])c(C)c1 ?
Result: 80

Ask: Now this one: N#Cc1nn(-c2c(Cl)cc(C(F)(F)F)cc2Cl)c(N)c1[S+]([O-])C(F)(F)F (stereo not shown)
Result: 60
